- Tested on: Danio rerio Tg(wt1b:EGFP) embryo, pronephros
- Method: glomerular width (mean of left and right), fold change vs DMSO control; higher = wider glomerulus
- Protocol Conditions: 25 µM; exposure: 24-48 hpf
Counter-ions that a name gives are not always drawn.
Exercise: for every item that follows, state its recorded glomerular width.

According to the records, this molecule C=CCc1ccccc1OCC(O)CNC(C)C (centres undefined) [Alprenolol hydrochloride] displays glomerular width of 1

According to the records, this molecule Cc1ccc(C)c(OCCCC(C)(C)C(=O)O)c1 displays glomerular width of 0.602

According to the records, this molecule C=CC1=C(C(=O)O)N2C(=O)[C@@H](NC(=O)/C(=N\O)c3csc(N)n3)[C@H]2SC1 displays glomerular width of 1.04

According to the records, this molecule CO/N=C(\C(=O)N[C@@H]1C(=O)N2C(C(=O)O)=C(C[N+]3(C)CCCC3)CS[C@H]12)c1csc(N)n1 [Cefepime hydrochloride] displays glomerular width of 1.01
